Where do these numbers come from? They come from ChEMBL document CHEMBL4725368.

Test system: Neisseria gonorrhoeae
Assay: Antibacterial activity against Neisseria gonorrhoeae ATCC 49226 assessed as reduction in bacterial growth by CLSI protocol based microdilution method
Type: functional

{"chemical.string": "Nc1nc(-n2cc(C(=O)O)c(=O)c3cc(F)c(N4CC(O)C4)c(Cl)c32)c(F)cc1F", "MIC (µg/mL)": 0.06}
{"chemical.string": "Nc1nc(-n2cc(C(=O)O)c(=O)c3cc(F)c([C@H]4C[C@@H](O)C4)c(Cl)c32)c(F)cc1F", "MIC (µg/mL)": 0.06}
{"chemical.string": "Nc1nc(-n2cc(C(=O)O)c(=O)c3cc(F)c(N4CC(N)C4)c(Cl)c32)c(F)cc1F", "MIC (µg/mL)": 0.007}
{"chemical.string": "Nc1nc(-n2cc(C(=O)O)c(=O)c3cc(F)c([C@H]4C[C@H](O)C4)c(Cl)c32)c(F)cc1F", "MIC (µg/mL)": 0.01}
